- Test system: Plutella xylostella
- EXPERIMENT_NOTES: Insecticidal test against Plutella xylostella
- SETTINGS: 500 ppm drug solution, Chinese cabbage seedlings with eggs immersed about 30 sec, six days after immersion, 25° C.
REPORTED_ENDPOINT: corrected mortality, rating of assessment

COMPOUND | RECORDED_RESULT
CC1(C)C(=O)C(C(=O)Nc2ccc(F)cn2)=C(O)CC1c1ccc(Br)cn1 (stereo not drawn) | D or higher
O=C1CC2c3cc(C(F)(F)F)ccc3CC2C(O)=C1C(=O)Nc1ccc(F)cc1 (stereo not drawn) | D or higher
CC1(C)C(=O)C(C(=S)Nc2ccc(F)cc2)=C(O)CC1c1ccc(C(F)(F)F)cc1 (stereo not drawn) | D or higher
